ASSAY PROTOCOL: in vivo
SETTINGS: female, C57BL6, mouse, AUC0-24h B/P ratio
MEASURED ENDPOINT: Kp
The answer should be written as a number, with no unit following it.

Input: Would you mind telling me what Kp value was observed for COC(=O)Nc1nc2ccc(C(=O)c3ccccc3)cc2[nH]1 ?
Output: 0.82
